Measured inhibition by item
- target: Mast/stem cell growth factor receptor Kit (Homo sapiens) (UniProt P10721);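 further: values are mean inhibition of KIT, from the GSK PKIS dataset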
- Sequence (P10721 whole entry): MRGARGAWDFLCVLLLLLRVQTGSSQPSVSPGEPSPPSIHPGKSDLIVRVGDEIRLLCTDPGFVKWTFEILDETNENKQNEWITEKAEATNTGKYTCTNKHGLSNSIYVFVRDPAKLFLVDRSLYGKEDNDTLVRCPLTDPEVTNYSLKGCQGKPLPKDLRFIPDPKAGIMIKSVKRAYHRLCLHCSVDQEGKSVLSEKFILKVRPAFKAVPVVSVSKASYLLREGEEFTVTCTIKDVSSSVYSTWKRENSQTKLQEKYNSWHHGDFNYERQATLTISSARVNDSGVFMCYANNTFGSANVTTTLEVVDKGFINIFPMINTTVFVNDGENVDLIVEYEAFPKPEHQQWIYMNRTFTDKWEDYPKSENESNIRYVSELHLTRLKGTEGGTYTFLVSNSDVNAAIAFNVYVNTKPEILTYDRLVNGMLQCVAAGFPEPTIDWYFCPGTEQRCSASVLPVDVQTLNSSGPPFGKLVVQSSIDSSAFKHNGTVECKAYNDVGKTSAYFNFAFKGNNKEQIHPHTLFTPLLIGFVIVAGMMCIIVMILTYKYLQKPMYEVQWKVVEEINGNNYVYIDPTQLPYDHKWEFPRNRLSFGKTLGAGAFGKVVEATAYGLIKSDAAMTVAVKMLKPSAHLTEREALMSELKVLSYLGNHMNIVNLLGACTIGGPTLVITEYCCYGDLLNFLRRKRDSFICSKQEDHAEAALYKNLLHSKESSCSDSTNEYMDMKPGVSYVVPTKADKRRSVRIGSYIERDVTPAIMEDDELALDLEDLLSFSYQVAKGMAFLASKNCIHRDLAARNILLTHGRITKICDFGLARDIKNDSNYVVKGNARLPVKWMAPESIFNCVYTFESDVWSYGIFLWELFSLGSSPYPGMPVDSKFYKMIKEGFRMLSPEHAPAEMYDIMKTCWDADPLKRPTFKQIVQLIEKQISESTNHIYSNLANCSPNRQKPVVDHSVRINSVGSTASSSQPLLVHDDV
- test-context: at 0.1 µM
// units = %; emit number, no label

Take a look at these entries with their results.
>  <substance-smiles>
Nc1ccc(C#Cc2cncnc2Nc2ccc(OCc3cccc(F)c3)c(Cl)c2)cc1

>  <inhibition, %>
5.48

$$$$
>  <substance-smiles>
NS(=O)(=O)c1ccc(N/N=C2\C(=O)Nc3ccc(Cl)cc32)cc1

>  <inhibition, %>
41.3

$$$$
>  <substance-smiles>
Nc1nccc(-c2c(-c3ccc(F)cc3)ncn2CCCN2CCOCC2)n1

>  <inhibition, %>
3.2

$$$$
>  <substance-smiles>
FC(F)(F)c1ccc(-c2nn3ncccc3c2-c2ccnc(Nc3ccc4c(c3)OCCO4)n2)cc1

>  <inhibition, %>
6.76

$$$$

# context switch: different compound, same inhibition
Req: Give the measured inhibition of `NC(=O)c1sc(-n2cnc3ccccc32)cc1OCc1ccccc1Br` .
Resp: 5.61
